# CONDITION_NOTES: normal mice, oral gavage, 3mg/kg; Kidney; 6h
PARAMETER: Drug concentration, time course

Past entries and their recorded results:
* CC(C)Cc1ccc(C(C)C(=O)O)cc1 (stereo not drawn) | 16,500
* OC[C@H]1O[C@@H](c2ccc(F)c(Cc3cc4ccccc4s3)c2)[C@H](O)[C@@H](O)[C@@H]1O | 14,500

Quick note, Drug concentration, time course for CC#CCn1c(N2CCC[C@@H](N)C2)nc2c1c(=O)n(Cc1nc(C)c3ccccc3n1)c(=O)n2C landed at 12,800
